- assay.system: T1, cyno TREM-1 (cynomolgus monkey, UniProt A0A2K5VHG8 21-233)
- T1 sequence: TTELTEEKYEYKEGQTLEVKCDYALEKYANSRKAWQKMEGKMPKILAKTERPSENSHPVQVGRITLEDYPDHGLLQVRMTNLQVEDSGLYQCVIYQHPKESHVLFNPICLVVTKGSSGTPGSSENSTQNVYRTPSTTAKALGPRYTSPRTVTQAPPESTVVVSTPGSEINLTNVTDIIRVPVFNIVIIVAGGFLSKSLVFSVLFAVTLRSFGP
- assay.comment: cell-based or functional assay
experimental.readout: Ab IC50-Cyno PBMC (Trial 1), TNFα release induced by cyno PGLYRP1/PGN (nM)
Give the value, in units of nM, as a plain number.

Lab note: 57C10 (antibody, V domains shown) VH: QVQLVQSGAEVKKPGASVKVSCKASGYTFTRYDINWVRQATGQGLEWMGWLNPNSGNTGQTQKFRGRVTMTRNTSINTAYMELSSLRSEDTAVYYCARGGYTSAWRWYFDLWGRGTLVTVSS VL: DIQMTQSPSSLSASVGDRVTITCQASQDINNHLNWYQQKPGKAPKLLIYDVSNLETGVPSSFSGSGCGTDFTFTISSLQPEDIATYFCQQYDKLPLTFGGGTKVEIE gave Ab IC50-Cyno PBMC (Trial 1), TNFα release induced by cyno PGLYRP1/PGN of 0.154
